Measured On: KRAS wt(8-16) peptide … with HLA-A11 and b2M on peptide-pulsed MINO cells (human)
Run Description: flow cytometry, phage-displayed scFv on peptide-pulsed MINO cells (FIG. 10)
Readout Name: binding result

KRAS_G12D_A11_c114 (scFv) scFv: DIQMTQSPSSLSASVGDRVTITCRASQDVNTAVAWYQQKPGKAPKLLIYSASFLYSGVPSRFSGSRSGTDFTLTISSLQPEDFATYYCQQYAYYPVTFGQGTKVEIKRTGGGSGGGGSGGGASEVQLVESGGGLVQPGGSLRLSCAASGFNLSGYYMHWVRQAPGKGLEWVAWFSPYSGYTYYADSVKGRFTISADTSKNTAYLQMNSLRAEDTAVYYCSRTHSSIYHSFDYWGQGTLVTVSS :: no binding
KRAS_G12D_A11_c17 (scFv) scFv: DIQMTQSPSSLSASVGDRVTITCRASQDVNTAVAWYQQKPGKAPKLLIYSAYFLYSGVPSRFSGSRSGTDFTLTISSLQPEDFATYYCQQYSAYYQPITFGQGTKVEIKRTGGGSGGGGSGGGASEVQLVESGGGLVQPGGSLRLSCAASGFNIFSDQMHWVRQAPGKGLEWVAGFMPYDSYYTNYADSVKGRFTISADTSKNTAYLQMNSLRAEDTAVYYCSRMSVRNAFDYWGQGTLVTVSS :: no binding
